The measurements presented in this section are drawn from patent US20250361322A1.

# reported % IL8 at 40 nM antibody; entries follow
# measured-target: human Tissue Factor (TF) (human, UniProt P13726 33-295)
# measurement-description: cell-based or functional assay

binder | unit-of-measurement | % IL8 at 40 nM antibody
25G9 (antibody, human IgG1, V domains shown) VH: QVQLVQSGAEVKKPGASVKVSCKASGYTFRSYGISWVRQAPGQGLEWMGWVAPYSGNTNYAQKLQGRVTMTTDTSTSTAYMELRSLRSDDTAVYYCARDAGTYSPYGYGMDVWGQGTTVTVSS VL: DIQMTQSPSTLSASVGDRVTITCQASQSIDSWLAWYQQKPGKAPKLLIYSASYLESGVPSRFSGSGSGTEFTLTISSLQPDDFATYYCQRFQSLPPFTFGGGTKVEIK | % | 14
43B7 (antibody, human IgG1, V domains shown) VH: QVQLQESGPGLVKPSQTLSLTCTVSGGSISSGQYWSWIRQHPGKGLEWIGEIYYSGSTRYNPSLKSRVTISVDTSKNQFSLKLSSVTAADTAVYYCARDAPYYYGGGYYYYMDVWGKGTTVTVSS VL: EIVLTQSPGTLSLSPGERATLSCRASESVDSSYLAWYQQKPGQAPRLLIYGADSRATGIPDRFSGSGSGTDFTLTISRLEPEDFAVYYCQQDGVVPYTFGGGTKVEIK | % | 4
25A3 (antibody, human IgG1, V domains shown) VH: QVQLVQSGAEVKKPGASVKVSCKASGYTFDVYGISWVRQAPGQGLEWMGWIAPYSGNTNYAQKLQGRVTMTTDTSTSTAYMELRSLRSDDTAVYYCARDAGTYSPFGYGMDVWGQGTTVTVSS VL: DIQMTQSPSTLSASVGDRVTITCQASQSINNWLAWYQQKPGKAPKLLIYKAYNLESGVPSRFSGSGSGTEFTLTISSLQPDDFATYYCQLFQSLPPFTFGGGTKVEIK | % | 8
25A (antibody, human IgG1, V domains shown, Human IgG1; also called antibody designated 25A; Antibody Clone 25A) VH: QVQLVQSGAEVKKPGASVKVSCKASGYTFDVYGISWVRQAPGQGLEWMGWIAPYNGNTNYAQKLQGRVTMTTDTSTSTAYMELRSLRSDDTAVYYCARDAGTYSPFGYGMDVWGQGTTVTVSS VL: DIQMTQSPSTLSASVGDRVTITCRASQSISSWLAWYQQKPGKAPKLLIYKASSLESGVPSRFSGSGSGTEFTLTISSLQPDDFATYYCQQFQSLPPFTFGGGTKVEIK | % | 8
25G1 (antibody, human IgG1, V domains shown) VH: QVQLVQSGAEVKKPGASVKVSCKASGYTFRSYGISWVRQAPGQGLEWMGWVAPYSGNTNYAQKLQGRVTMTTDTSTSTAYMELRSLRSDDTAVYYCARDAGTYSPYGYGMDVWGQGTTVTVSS VL: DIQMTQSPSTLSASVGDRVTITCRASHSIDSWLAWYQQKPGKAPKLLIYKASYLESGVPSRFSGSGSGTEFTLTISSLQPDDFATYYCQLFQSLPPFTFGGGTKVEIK | % | 8
